system: OVCAR-8 ovarian; experiment: NCI tumour cell line growth inhibition, 48 h
Classify by measured TGI: yes (1) if it is equal to or exceeds 20 µM, no (0) if it is smaller.

COMPOUND	CLASS LABEL
Cc1ccc(NC(=O)/C(C#N)=C/c2ccccc2)c(C)c1	yes (1)
CC(C)=CC(=O)OC1C2C(C)=CC(O)C(O)C2(C)C2C3(O)OCC24C(CC(=O)OC14)C(C)C3O (centres undefined)	no (0)
O=C1c2ccccc2C(=O)c2c1cc1c(c2[N+](=O)[O-])OCO1	no (0)
O=S(=O)(NCCCNc1cc(-c2cn(-c3ccccc3)nc2-c2cccc(O)c2)ccn1)c1ccc(F)cc1	no (0)
C[C@H]1C(=O)c2c(cc(O)c(C3OC(CO)C(O)C(O)C3O)c2O)OC1c1ccc(O)c(O)c1 (some centres undefined)	yes (1)
COc1cc2c(cc1NC(=O)C(Cl)Cl)-c1ccc(NC(=O)C(Cl)Cl)cc1C2	no (0)
O=C1C(Nc2cccc(O)c2)=C(Sc2ccccc2)C(=O)N1Cc1ccccc1	yes (1)

Read the next record carefully.
Reported TGI reaches at least 20 µM for COC1=C2CC(C)CC(OC)C(OC(=O)CCCN)C(C)/C=C(\C)C(OC(N)=O)C(OC)/C=C\C=C(/C)C(=O)NC(=CC1=O)C2=O (centres undefined) ?
yes (1)

----------
tested on: MALME-3M melanoma; assay: NCI tumour cell line growth inhibition, 48 h
MEASURE NAME: TGI (µM)
Give bare numbers, in µM.

See these solved cases before continuing.
COMPOUND	MEASURE NAME	UNIT DESCRIPTOR	RECORDED MEASUREMENT
Clc1nc(Cl)c2ncn(CCOCCn3cnc4c(Cl)nc(Cl)nc43)c2n1	TGI	µM	0.464
O=c1ccc2ccccc2c2ccccc12	TGI	µM	22.3
CC(C)OC(=O)C1Cc2c([nH]c3ccccc23)C(c2ccccc2)N1 (configuration not stated)	TGI	µM	73.4
CCC(=O)C(CCN1CCC(N2C(=O)C(CCC#N)c3ccccc32)CC1)(c1ccccc1)c1ccccc1 (configuration not stated)	TGI	µM	24.8
CC1CCN(CCOc2ccc(CNc3ccc4nc(CCC5CCCCC5)[nH]c4c3)cc2)CC1	TGI	µM	3.17

Working through the 4 compounds below one at a time, give TGI for each.
1. Nc1nc(-c2ccc(Cl)cc2)nc2c1sc(=S)n2-c1ccccc1
2. Cc1cc2c(c(=O)o1)C1=S(SC(c3ccccc3)=C1)S2 (configuration not stated)
3. Cc1cc(O)c2c3c(ccc2c1)C(=O)c1c(O)cccc1C3=O
4. O=C1c2ccccc2C(=O)c2c1cc1c(c2[N+](=O)[O-])OCO1

[5.67, 86.7, 0.0846, 8.9]

Working through the 2 compounds below one at a time, give TGI for each.
1. O=C1C(Nc2cccc(O)c2)=C(Sc2ccccc2)C(=O)N1Cc1ccccc1
2. O=[N+]([O-])C(=C/c1cccc2ccccc12)/C(=C\c1cccc2ccccc12)[N+](=O)[O-]

1. 9.97
2. 5.49

----------
tested on: BT-549 breast; experiment: NCI tumour cell line growth inhibition, 48 h; in the data active = GI50 below about 0.43 µM; inactive = the rest
Write down the outcome that applies. Available outcomes: active, inactive

Recorded results for 3 molecules are shown here.
SMILES ENTRY	CLASS LABEL
N#C/C(=C\c1cc2ccc(N3CCC3)cc2oc1=O)C(=O)N(CC(=O)O)CC(=O)O	inactive
COc1ccc2nc3cc(Cl)ccc3c(N3CCN(c4ccnc(N5CCN(C)CC5)n4)CC3)c2c1	inactive
CSC1=Nc2c(c(C)c(-c3ccccc3)n2COC(CO)CO)C2=NC(=O)CN12	inactive

Read the next record carefully.
Returns: the outcome recorded for O=C(c1ccco1)c1c(C(F)(F)F)n([O-])c2cc(F)c(F)cc2[n+]1=O in this assay.
active
